Assay overview: soluble fraction after stress (log2 fold change); higher = more stays soluble; pooled small domains, quantitative proteomics
Settings: stress: 50 degC
# soluble fraction (log2) values compiled below

{"columns": ["Record sequence", "soluble fraction (log2)"],
 "data": [
  ["HMKNLKPSTEVILKELVKRYPDQTEFRKQQIVDVGQSFGYKGKDYGPIFDADNRVKIGTYDLAGLIVPLQR", -0.0461],
  ["HMISQLRGKVLGTDRDALVIDVGGVGFRVSATAGARALAGQSGNEARLFTEMVVREDSIDLFGF", 0.217],
  ["HMRADRLISMLMLLQARGKITAEELAVELGVSQRTIYRDIEALSFAGVPVYAERGPGGGIGLLEPY", -1.7],
  ["HMELEQLKSQLTGFLKANREQIFTAQNLADGLRMTDSQGYKQVVNALNASVRDGDVIDIKNGYQYNKN", 0.0729],
  ["HMDDVIEVEGKVVEVLPNTKFIVELANSHKITAHISGKLRMNYIRIMKGDNVTVEMSPYDLTKGRIIWRS", -0.00397],
  ["HMRPQIAIDAIQALSLIMRTENKEDPTYLESRRVVSDAVAKRLSLNPTDLNRAWSRAPRDHQIAVLSALTQ", -0.853],
  ["HMEPAPELTPREQQVLARIALGMTDKAIAEELGVSHQTVRNHVARIYQKIKVHSRSQAVVWAREKGI", -0.192],
  ["HMNSTEQQTERFLATLTSLGGNAGNQRLQEALGWQGSTYQRIKQHLLDEGRIRTGRGRGGSVALSEATAT", 0.143]
]}

----------
Assay overview: soluble fraction after stress (log2 fold change); higher = more stays soluble; pooled small domains, quantitative proteomics
Settings: stress: 50 degC
// classify(record): look up soluble fraction (log2) in ranges one (below -0.6), two (-0.6 to below -0.1), three (-0.1 or more)

{"columns": ["Record sequence", "Discrete label"],
 "data": [
  ["HMDADRLSPREREMLQFIARGQSNKEIARALELAESTVKIHVQNMLRKLNLSSRVQAAVFAVENGLG", "two"],
  ["HMSNEEEIEGLVSKVLDNNPEIVERIRSGEDKLISYLVGEVMKQSSSSLNPGIVKEIIVNKTI", "three"],
  ["HMTESIHVGSKVTINNNAKRWATGQNIYSGVKGKTYTVIQMNGSRLLLDKVISWINKGDVHLPGS", "one"],
  ["HMAIGDYYINASALNVRSGEGTNYRIIGALPQGQKVQVISENSGWSKINYNGQTGYIGTRYLSKTPV", "three"],
  ["HMTDVRFISIPIQKEHPWNRKLVSELNLPPGTLLVFLRRTGENIVPNGKTMIQEGDVLVLGASAYR", "two"],
  ["HMELPSDEHLDDISHLARIGHKKGLQEKIIQLEQQGLASAEFIQQLKTLTNNFQFEKIIQWVDSEL", "three"],
  ["HMSEVSEILTRARFFAGVKTDAELSTLLKIPYGTLIGWKTRKNIPESRIAQMALILGIRRDTLIPA", "one"],
  ["HMGSGKGAAHTILGISADASDDEIKAAWRKLVQENHPDKLVSQGLPDEFVQAATDRLRLINTAYQSMLNRP", "three"],
  ["HMVTTADIILEFYSRNPNATLTQAAQHVARATGTTYSRQAISAQLKRLEVAGLVERNGHVTV", "two"],
  ["HMLSVLKNVDVNSLSDDKIKTYWQQIQKSGYTLDEVEVLAEAQGISPLKIAAFKRRVQSLQQSLQT", "three"],
  ["HMLDTPLTARELDVLYLMRQRMSAKEIAKQLGIATMTVNRHAANLYRKLGVNTRWDAVYRAEEVGILPP", "one"],
  ["HMGMTTSILDDVIGMGPKRKKALLKAFGSFGALRNATLEEIKQTHTVPEQVAEDVYAVLVQYNSKSE", "two"],
  ["HMPDLSEDEEKIVSLLRDNNDLNVNIIVMRTQLPSATVTSSLFSLELKGVVRMYAGGMYHLM", "one"],
  ["HMTHANAALTPRHRLKVARLVVDEGWPVSEVAARFQVSWPTVKRWADRYRAGQSMQDRSSRP", "one"],
  ["HMEDEEILNEIRHTEQYVYYFGNYIMEHHVSRGLSKEKVIASLARELQIEIADIREDFDGMIEQIKTNILN", "two"]
]}

----------
Assay overview: soluble fraction after stress (log2 fold change); higher = more stays soluble; pooled small domains, quantitative proteomics
Settings: stress: 50 degC
Measured soluble fraction (log2), listed per entry.

{"columns": ["Record sequence", "soluble fraction (log2)"],
 "data": [
  ["HMDFVKGDTVVFIDAFMPDHLMTIHKVQGEGILLDGNHKFALAHLIRHASTVELNAKRRLSLTEQS", -2.05],
  ["HMEGLATRLRFLRQARGLSYHALARLSGVTHTALHQIEAGKNIPGLDTAEKIAMALDVDPRWFAYGRGDPS", -1.31],
  ["HMNSNLSLTSYEEKIFFLLEKEKNLDELILESSFKAGEILSILMDLEIKHAIVSIPGGKYRRK", -2.84],
  ["HMNLTSSDIQKILSYALLADNSITLNSIEESMASLKLKKMSAEQLIELLEVSSMVLRNTNNSWSIL", -1.95],
  ["HMQYSIQVNKLLKAMREDVWYTANEILDLLKLKSKETLRKNYLDPAINNKLIILELPDKPTSRNQRYKI", -1.66],
  ["HMLDFGQEDSEAVSEIILVLGRYWMDFSHKKYPEAEGSALRHKGISHIFTVLKPYLTSATAQLIEQRLQQ", 0.00235],
  ["HMNERTKIPLRKIEIGQAVYVDTLEKVGTVIDIQGKQFKVDLAGLPITVAARNLFYPLPQEAKP", -0.106],
  ["HMEQVQQIPIEELFPFKEHPFKVLDDEAMQRTVESVAQYGVLAPLIARPRPEGGYEIISGHRRQHAAELYR", -0.0852]
]}

----------
Assay overview: soluble fraction after stress (log2 fold change); higher = more stays soluble; pooled small domains, quantitative proteomics
Settings: stress: 50 degC
Measured parameter: soluble fraction (log2)

{"columns": ["Record sequence", "Measured parameter", "Value reported"],
 "data": [
  ["HMADDFISTLFSEGIIIDTEVKQFAERQGSPLQFVRHIASNLPEPRDIITMGEVRSVMREGA", "soluble fraction (log2)", -0.149],
  ["HMEESEMIAFATVAHRIVGKPVEAVMRSYRNRDNIPADIAAIVSSKFTFSVTMAEASYRNPKKSYQVNSII", "soluble fraction (log2)", -0.00943],
  ["HMSMFAQQLKDLRKKIPGLTQTDMAKKLGIAKTTYASYEQGKRTPDIETQNKIADFFNVSLDYLHG", "soluble fraction (log2)", -0.0838],
  ["HMDAVDKDGNHMTFKKWSEQLQEAFHALELYDTTRAKQILSELVKFQVDSDITKSLKAIITNIDDMMA", "soluble fraction (log2)", -0.338],
  ["HMSLMHEESLKNIRRFINSLPESLRTAFTLREQDGLSYEEIGVITETPIGTVRSRIFRAREAILEHIKKEL", "soluble fraction (log2)", -2.24],
  ["HMGLKWVYYTNIEPDGNKINNQKLYDILKQKFVYPVIISRDELDSMELKDLTYDSYIDVEGRYFKPYNLD", "soluble fraction (log2)", -2.23],
  ["HMGMAGILDSARMASFIQEKLGYGGGQIRASVMGGHGDDMVPLPRYSTVAGVPLSDVLTQNEIDEMFAQ", "soluble fraction (log2)", -0.0615],
  ["HMAVSVPDVMGLTYEEAYNKITAEGLLVNRLESYTGLVEKGRVISQLPVGGEPAAKGSTVNVNVSL", "soluble fraction (log2)", 0.252]
]}

----------
Assay overview: soluble fraction after stress (log2 fold change); higher = more stays soluble; pooled small domains, quantitative proteomics
Settings: stress: 50 degC
Response key: TRUE means soluble fraction (log2) >= -0.3; FALSE means soluble fraction (log2) < -0.3.

{"columns": ["Record sequence", "Discrete label"],
 "data": [
  ["HMKRISDEDLLVMRRIDEVHTYHPTWGYRTITRILRRDDHLLINPKKVRRIMRDMGIYTIYPK", "TRUE"],
  ["HMNSRAERKEAAKEAIRNLLREGMTFEELTGPWLEKRFAEEPFNRGARSWQMLISEIKEEPEFQHL", "TRUE"],
  ["HMAQRFDLGDKLNPQSSEFEYLGTSSRTGVSTYRYKNVPTQLFFGRQIGDIVVGVRRGMITLTIYNL", "TRUE"],
  ["HMESENANVNRAMLTGIASMHAGQLETALNKFNEVIQLAPDFAEGWNKRATIFYLMKKFDRSVNDIAQTLK", "TRUE"],
  ["HMRSMEKRLTAKVKRVQEGVQAKSQAGEQPFEVVKLMQRFPKLMQFGKHAEAETVLDKALELLGEE", "TRUE"],
  ["HMGMTAPIPGVVLKVSVLPGQKVERGDELLTIEAMKMFNVMRSPSSGTIATVHIKDGDRVVQGQPLVTFA", "TRUE"],
  ["HMQVSEQVQRLLDALENDTLTTKELMDRLGLKHRPTFRKNYLLPSMKLGLVEMTIPDKPNSSRQKYRRRQ", "FALSE"],
  ["HMKLPIEKESYRIIWDLEEESFRIRLKISENSPQEEKNILINQAIEDIENITGEPIDKSPYYVLYE", "TRUE"],
  ["HMLQKVELSDNEKFIFDSLQKEQKMALLRLKELVNLSNKAWDVSVKNLTKQGLVKVTKIDEELLIEI", "FALSE"],
  ["HMSDIYSLFERELGRTLSSYEYEIIGKWIEKGVSEDTIKRALKEAILNGVTNFKYIDKIIYDWSKN", "FALSE"],
  ["HMATPRLAIVPQSAAGRRLDAVLAELFPEYSRSRLSAWIKTGDVMVDGAAPRGRDPVRGGEEITLTAVQ", "TRUE"],
  ["HMVKRAYGEYVNVKLTDADLSKLKADFPADWQERIERLSTYMASTGKTYKNHLATIRNWARRDAERVSA", "TRUE"],
  ["HMKNTADRVYENLFHMLVSGDYAPGDRIPSEHELKERFNVSRNTIRAALNRMNALGIIETRQGDGTYLKG", "TRUE"],
  ["HMGGKWSMPIIYILSKGKMRFKELERSVEGINTRMLVKELKNMEANGIVTREVFPTVPPTVEYALT", "FALSE"],
  ["HMTDFLKTRIDTLGLSTRTLNALSEANVRTIGGIARKKQEDLLEIDGIGEKGIQEIKKMLGEYGITL", "TRUE"],
  ["HMTKIKAIFFDIDGTIRSFKTKTIPENTANTLKKLKEQGIKIFIATGRAPFHTTFLNDLLDFKFDGYITIN", "TRUE"]
]}
